assay-remarks: Study 1: porcine plasma profiles of tetracaine and meloxicam applied topically to the castration surgical site
Format: in vivo
condition-label: male, pig, plasma, topical, 15 min post-treatment, individual piglets, topical to castration wound
readout-label: concentration at 15 min (ng/mL)
Give bare numbers, in ng/mL.

Lookup: Tell me the measured concentration at 15 min of `Cc1cnc(NC(=O)C2=C(O)c3ccccc3S(=O)(=O)N2C)s1` , please.
Found: 86.9

---

assay-remarks: Study 1: porcine plasma profiles of tetracaine and meloxicam applied topically to the castration surgical site
Assay type: in vivo
condition-label: male, pig, plasma, topical, 2 hr post-treatment, individual piglets, topical to castration wound
Method: Dose Calculation, Preparation & Administration: Study animals were dosed according to the Treatment Regime outlined in Table 4 below. No preparation of any of the IVPs was performed other than inversion of each container 2-3 times prior to treatment. Blood Analysis: Blood samples were collected from allocated animals via anterior vena-caval puncture using 21G, 1.5″ needle attached to 10 mL syringes and transferred immediately into 5 mL lithium heparin blood tubes. […]
readout-label: concentration at 2 hr (ng/mL)
Answers are plain numbers, in ng/mL.

Lookup: Dear colleague, I am looking for the recorded concentration at 2 hr of the following compound: Cc1cnc(NC(=O)C2=C(O)c3ccccc3S(=O)(=O)N2C)s1 [Meloxicam]
Found: 126

---

assay-remarks: Study 1: porcine plasma profiles of tetracaine and meloxicam applied topically to the castration surgical site
Assay type: in vivo
condition-label: male, pig, plasma, topical, 30 min post-treatment, individual piglets, topical to castration wound
readout-label: concentration at 30 min (µg/mL)
Give bare numbers, in µg/mL.

Lookup: Fill in the blank: the reported concentration at 30 min of `Cc1cnc(NC(=O)C2=C(O)c3ccccc3S(=O)(=O)N2C)s1` is ____.
Found: 0.109

---

assay-remarks: Study 1: porcine plasma profiles of tetracaine and meloxicam applied topically to the castration surgical site
Format: in vivo
condition-label: male, pig, plasma, topical, 1 hr post-treatment, individual piglets, topical to castration wound
readout-label: concentration at 1 hr (ng/mL)
Numbers only, in ng/mL.

Lookup: Quick check: concentration at 1 hr of `Cc1cnc(NC(=O)C2=C(O)c3ccccc3S(=O)(=O)N2C)s1` ?
Found: 190
